The following compounds are shown together with reported viability, T/C values.
# Tested on: 186277-243-T-J2-PDC complex spheroids, viability;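 further: spheroids exposed to compounds for 7 days before viability read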
# experimentDescription: Anticancer human tumor 186277-243-T-J2-PDC patient-derived colon adenocarcinoma cell line growth inhibition [RAS]
# protocolConditions: second compound 0.000949 µM; first compound 0.1 µM; hits give low values
Write it as a number; the unit % goes unstated.

CC(=O)OC12COC1CC(O)C1(C)C(=O)C(O)C3=C(C)C(OC(=O)C(O)C(NC(=O)OC(C)(C)C)c4ccccc4)CC(O)(C(OC(=O)c4ccccc4)C21)C3(C)C (centres undefined) + CCn1c(-c2cc(N3CCN(C)CC3)cnc2C(C)OC)c2c3cc(ccc31)-c1csc(n1)CC(NC(=O)C1CC1C)C(=O)N1CCCC(N1)C(=O)OCC(C)(C)C2: 3.88

Find the recorded viability, T/C belonging to Nc1ccn(C2OC(CO)C(O)C2(F)F)c(=O)n1 (centres undefined) + CCn1c(-c2cccnc2C(C)OC)c2c3cc(ccc31)N1CCOC(CC(NC(=O)C(C(C)C)N(C)C(=O)C3(F)CCN(C(=O)C#CC(C)(C)N(C)C)CC3)C(=O)N3CCCC(N3)C(=O)OCC(C)(C)C2)C1 and report it.
7.98

Hey, just so you know, these numbers are from PubChem BioAssay AID2060908.
